Listed here are variants together with their documented protein stability index.
B1: MLL5 (parent)
chain: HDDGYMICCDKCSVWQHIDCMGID

Variants of: B1
Test: protein stability index of a GFP-peptide fusion (GPS, HEK-293T) (PSI 1-6); higher = more stable;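 also: lentivirally expressed fusions sorted by FACS into six bins by GFP to DsRed ratio, PSI derived from sequencing read proportions per bin multiplied by bin number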
Details: c terminus: a fixed tail appended
The answer should be written as a number, with no unit following it.

Solved entries (count: 5):
>>> df
                        seq_string  quantitative_readout
0  HDDGYMICCDKCSVWQHIDCAGID [M21A]                  2.94
1   HDDGYMTCCDKCSVWQHIDCMGID [I7T]                  2.93
2  HDDGYMICCDQCSVWQHIDCMGID [K11Q]                  2.94
3  HDDGYMICCDKCSVWQHIDCMGVD [I23V]                  2.95
4  HDDGYMICCDKMSVWQHIDCMGID [C12M]                  2.05

Inquiry: // returns reported protein stability index for input HDDAYMICCDKCSVWQHIDCMGID [G4A]
Reply text: 2.04

Inquiry: Also need HDDGYMICCDKCSVWQLIDCMGID [H17L] , thanks.
Reply text: 1.98

Inquiry: HDDGYPICCDKCSVWQHIDCMGID [M6P] , same question.
Reply text: 2.96

Inquiry: For HDDGWMICCDKCSVWQHIDCMGID [Y5W] then?
Reply text: 2.03

Inquiry: Same lookup for HQDGYMICCDKCSVWQHIDCMGID [D2Q] , please.
Reply text: 2.04

Inquiry: Try the variant HDDGYMICQDKCSVWQHIDCMGID [C9Q]
Reply text: 3

Inquiry: What do we get for HDDEYMICCDKCSVWQHIDCMGID [G4E] ?
Reply text: 2.99

Inquiry: How about this variant: HDDNYMICCDKCSVWQHIDCMGID [G4N]
Reply text: 2.05
